All figures here come from patent US20180244785A1.

# Measured on: T1, soluble FGFR4 receptor protein (human, UniProt P22455 144-369)
# T1 sequence: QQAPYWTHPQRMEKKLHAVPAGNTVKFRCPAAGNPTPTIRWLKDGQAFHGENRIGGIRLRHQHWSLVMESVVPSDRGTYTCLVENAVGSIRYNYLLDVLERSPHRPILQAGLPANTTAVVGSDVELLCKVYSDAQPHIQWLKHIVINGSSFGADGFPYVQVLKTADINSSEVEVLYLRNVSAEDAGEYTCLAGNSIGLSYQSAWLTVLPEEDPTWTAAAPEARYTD
# Procedure text: BLI Octet RED96, antibody on anti-hIgG Fc tip
Let's look at some binders and their measured Kd.
Field format: number, assumed nM, no unit text.

Known results for binders:
# Binder, Kd / nM
rows = [
    ("Ab92 (antibody, human IgG2, kappa, V domains shown, format in the assays not spelled out) VH: EVQLLESGGGVVQPGRSLRLSCAASGFTFSSYAMHWVRQAPGKGLEWVAVISYDGSNKYYADSVKGRFTISRDNSKNTLSLQMNSLRVEDTAIYYCVRGAGHGFPTGPDGFDIWGQGTMVTVSS VL: DIVMTQTPLSLSVTPGQPASISCRSSRSLLHSDGKTYVYWYVQKSGQPPQLLIYELSNRFSGVPDRFSGSGSRTDFTLKISRVEAEDVGVYYCMQYVEAPLTFGGGTKVEIKR", 40.3),
    ("Vk10 combined with the VH of Ab15 (antibody, V domains shown, captured on anti-human IgG Fc tips) VH: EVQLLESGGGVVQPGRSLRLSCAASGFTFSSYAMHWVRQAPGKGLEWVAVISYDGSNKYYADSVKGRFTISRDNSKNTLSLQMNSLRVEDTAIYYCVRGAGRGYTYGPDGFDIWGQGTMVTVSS VL: DIVMTQSPDSLAVSLGERATISCTSSRSLLHSDGKTYVYWYQQKPGQPPKLLIYELSNRFSGVPDRFSGSGSRTDFTLTISSLQAEDVAVYYCMQYIEAPLTFGGGTKVEIK", 4.43),
]

Shift focus to the following entry.
Field Kd (entry Ab90 (antibody, human IgG2, kappa, V domains shown, format in the assays not spelled out) VH: EVQLLESGGGVVQPGRSLRLSCAASGFTFSSYAMHWVRQAPGKGLEWVAVISYDGSNKYYADSVKGRFTISRDNSKNTLSLQMNSLRVEDTAIYYCVRGAGRGYPYGPDGFDIWGQGTMVTVSS VL: DIVMTQTPLSLSVTPGQPASISCTSSRSLLHSDGKTYVYWYVQKSGQPPQLLIYELSNRFSGVPDRFSGSGSRTDFTLKISRVEAEDVGVYYCMQYVEVPLTFGGGTKVEIKR ) reads 6.69
